# Test system: HeLa
# experimentalDetails: Cytotoxicity against human HeLa cells after 72 hrs by MTT assay
# Assay type: functional, cell-based
testReadout: pIC50
Bear in mind: pIC50 is minus log10 of a mol/L concentration; give just that figure.

Lookup: What reported pIC50 corresponds to CCN(CC)CCNc1nc2c(Nc3ccc(C#N)cc3)c3ccccc3nc2s1 on HeLa?
Found: 4.82

Lookup: What reported pIC50 corresponds to CCN(CC)CCCNc1nc2c(Nc3ccc(Cl)cc3)c3ccccc3nc2s1 on HeLa?
Found: 5.05

Lookup: What reported pIC50 corresponds to CCN(CC)CCCNc1nc2c(Nc3ccc(C#N)cc3)c3ccccc3nc2s1 on HeLa?
Found: 4.62

Lookup: What reported pIC50 corresponds to CCN(CC)CCNc1nc2c(Nc3cccc(OC)c3)c3ccccc3nc2s1 on HeLa?
Found: 4.72

Now for a further compound.
Lookup: What reported pIC50 corresponds to CCN(CC)CCCNc1nc2c(Nc3cccc(C#N)c3)c3ccccc3nc2s1 on HeLa?
Found: 4.72
